Measured Kd by item
# target_or_system: T1, hIL-13Rα1.ECR (N-terminal FLAG-tagged fusion protein of the extracellular region of human IL-13Rα1) (human, UniProt P78552 29-343)
# T1 construct: also called human IL-13Rα1.ECR; hIL-13Rα1 extracellular domain
# T1 sequence: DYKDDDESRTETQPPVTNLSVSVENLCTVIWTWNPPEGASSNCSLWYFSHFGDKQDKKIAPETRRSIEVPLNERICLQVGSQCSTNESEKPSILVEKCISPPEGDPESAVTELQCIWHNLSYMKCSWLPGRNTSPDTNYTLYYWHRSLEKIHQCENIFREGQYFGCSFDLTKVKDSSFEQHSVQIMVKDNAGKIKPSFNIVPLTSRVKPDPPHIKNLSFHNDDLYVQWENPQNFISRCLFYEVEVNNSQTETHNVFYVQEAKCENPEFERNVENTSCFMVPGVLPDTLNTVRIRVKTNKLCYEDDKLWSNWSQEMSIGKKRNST
# protocol_summary: BIACORE SPR, chip-bound hIL-13Rα1 extracellular domain, Fab format
Kindly provide the numeric value in nM only, without the unit symbol.

For orientation, consider the following solved cases.
binder	unit_label	Kd
8B4-18C (Fab) (Fab, V domains shown, Fab format; only CDR3s were mutated) VH: EVQVLESGGGLVQPGGSLRLSCAASGFTFSNYAMTWVRQAPGKGLEWVSTISGRGYSIYYADSVKGRFTISRDNSKNTVYLQMNSLRAEDTAVYYCAKEEGHWYFDVWGRGTLVTVSS VL: EIVLTQSPDFQSVTPKEKVTITCRASQSIGSSLHWYQQKPDQSPKLLIKYASQSFSGVPSRFSGSGSGTDFTLTINSLEAEDAAAYYCMNSLGLPYTFGQGTKLEIK	nM	0.085
8B4-82 (Fab) (Fab, V domains shown, Fab format; only CDR3s were mutated) VH: EVQVLESGGGLVQPGGSLRLSCAASGFTFSNYAMTWVRQAPGKGLEWVSTISGRGYSIYYADSVKGRFTISRDNSKNTVYLQMNSLRAEDTAVYYCAKEEGHWYFDVWGRGTLVTVSS VL: EIVLTQSPDFQSVTPKEKVTITCRASQSIGSSLHWYQQKPDQSPKLLIKYASQSFSGVPSRFSGSGSGTDFTLTINSLEAEDAAAYYCASSRGLPYTFGQGTKLEIK	nM	0.073

Next, consider the following binder.
Quickly give me recorded Kd for 8B4-80C (Fab) (Fab, V domains shown, Fab format; only CDR3s were mutated) VH: EVQVLESGGGLVQPGGSLRLSCAASGFTFSNYAMTWVRQAPGKGLEWVSTISGRGYSIYYADSVKGRFTISRDNSKNTVYLQMNSLRAEDTAVYYCAKEEGHWYFDVWGRGTLVTVSS VL: EIVLTQSPDFQSVTPKEKVTITCRASQSIGSSLHWYQQKPDQSPKLLIKYASQSFSGVPSRFSGSGSGTDFTLTINSLEAEDAAAYYCMSSWGLPYTFGQGTKLEIK 0.25
